- experimental-system: full length N-terminally FLAG-tagged PARP1 (Homo sapiens)
- Sequence (P09874 whole entry): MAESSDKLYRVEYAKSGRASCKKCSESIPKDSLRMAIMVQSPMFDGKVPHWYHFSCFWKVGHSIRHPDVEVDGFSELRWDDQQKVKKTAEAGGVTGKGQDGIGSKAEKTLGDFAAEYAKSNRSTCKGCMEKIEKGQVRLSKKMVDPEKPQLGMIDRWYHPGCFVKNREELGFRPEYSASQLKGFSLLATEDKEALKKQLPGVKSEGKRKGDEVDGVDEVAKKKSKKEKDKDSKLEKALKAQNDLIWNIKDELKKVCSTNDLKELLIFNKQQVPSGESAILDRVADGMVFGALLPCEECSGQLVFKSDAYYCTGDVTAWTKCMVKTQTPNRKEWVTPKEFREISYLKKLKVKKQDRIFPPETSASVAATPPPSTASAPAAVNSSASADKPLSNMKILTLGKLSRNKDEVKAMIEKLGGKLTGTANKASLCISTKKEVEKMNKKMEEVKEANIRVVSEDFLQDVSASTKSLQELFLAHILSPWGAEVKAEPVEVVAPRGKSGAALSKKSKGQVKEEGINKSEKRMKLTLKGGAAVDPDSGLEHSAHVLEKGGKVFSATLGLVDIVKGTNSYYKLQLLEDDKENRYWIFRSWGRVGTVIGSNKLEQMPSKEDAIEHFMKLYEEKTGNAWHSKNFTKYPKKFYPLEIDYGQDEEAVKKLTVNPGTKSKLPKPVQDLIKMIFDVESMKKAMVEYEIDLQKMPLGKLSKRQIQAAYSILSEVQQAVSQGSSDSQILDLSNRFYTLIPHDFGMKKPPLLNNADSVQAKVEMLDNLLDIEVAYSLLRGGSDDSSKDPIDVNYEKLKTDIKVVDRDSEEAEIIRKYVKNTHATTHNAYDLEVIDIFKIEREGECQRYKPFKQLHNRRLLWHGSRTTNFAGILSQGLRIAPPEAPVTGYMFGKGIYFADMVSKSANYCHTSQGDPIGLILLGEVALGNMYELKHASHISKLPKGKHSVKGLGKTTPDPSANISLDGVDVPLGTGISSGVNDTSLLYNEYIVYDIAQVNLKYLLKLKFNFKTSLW
- assay-method-text: PARP1 probe displacement HTRF assay
- details: read-out: PARP1 HTRF; binned Kd, PARP1 probe displacement HTRF
Items are presented alongside their recorded Kd.

{"compound": "O=C(NCC(F)(F)F)c1ccc(N2CCC(N3CCC(c4nc5ccccc5c(=O)[nH]4)C3)CC2)cn1 (single isomer, unassigned) [Compound 130b]", "Kd": "< 10 nM"}
{"compound": "CNC(=O)c1ccc(N2CCC(N3CCC(c4cc5ccc(C(F)(F)F)cc5c(=O)[nH]4)C3)CC2)cn1 (racemic)", "Kd": "< 10 nM"}
{"compound": "O=c1[nH]c(CC2CCCN(C3CCC(F)(F)CC3)C2)nc2ccccc12 (single isomer, unassigned) [Compound 11a]", "Kd": "100 to 1000 nM"}
{"compound": "CNC(=O)c1ccc(N2CCC(N3CCCC(F)(c4nc5ccccc5c(=O)[nH]4)C3)CC2)cn1 (single isomer, unassigned) [Compound 71b]", "Kd": "10 to 100 nM"}
{"compound": "N#Cc1ccc(N2CCC(N3CCCC(c4nc5ccccc5c(=O)[nH]4)C3)CC2)cc1 (single isomer, unassigned) [Compound 79b]", "Kd": "10 to 100 nM"}
{"compound": "CNC(=O)c1ccc(N2CCC(N3CCC(c4nc5cc(F)ccc5c(=O)[nH]4)C3)CC2)cn1 (single isomer, unassigned) [Compound 92a]", "Kd": "100 to 1000 nM"}

src = patent US20250152585A1
